System: MG63 (osteosarcoma)
measurement.notes: Solid tumor cell growth inhibition, MTT, 72 h (Example 7)
Format: cell-based, human
measurement.conditions: Homo sapiens; 72 h, MTT, MG-63
Lab note - cut at 4 µg/mL for IC90: label 1 if strictly below, label 0 if not.

Solved cases below.
COc1ccc2cc1Oc1ccc(cc1)C[C@H]1c3cc(c(OC)cc3CCN1C)Oc1c(OC)c(OC)c(CN3CCN(c4ccccc4)CC3)c3c1[C@H](C2)N(C)CC3 | label 1
COc1ccc2cc1Oc1ccc(cc1)C[C@H]1c3cc(c(OC)cc3CCN1C)Oc1c(OC)c(OC)c(COCc3ccc(F)cc3)c3c1[C@H](C2)N(C)CC3 | label 0
COc1ccc2cc1Oc1ccc(cc1)C[C@H]1c3cc(c(OC)cc3CCN1C)Oc1c(OC)c(OC)c(COC(=O)c3ccc(N(C)C)cc3)c3c1[C@H](C2)N(C)CC3 | label 0
COc1ccc2cc1Oc1ccc(cc1)C[C@H]1c3cc(c(OC)cc3CCN1C)Oc1c(OC)c(OC)c(CN3CCCCC3)c3c1[C@H](C2)N(C)CC3 | label 1
COc1ccc2cc1Oc1ccc(cc1)C[C@H]1c3cc(c(OC)cc3CCN1C)Oc1c(OC)c(OC)c(CN3CCN(CCO)CC3)c3c1[C@H](C2)N(C)CC3 | label 1

Shifting focus to the molecule that follows.
Find out if reported IC90 for COc1ccc2cc1Oc1ccc(cc1)C[C@H]1c3cc(c(OC)cc3CCN1C)Oc1c(OC)c(OC)c(CN3CCCN(C)CC3)c3c1[C@H](C2)N(C)CC3 is less than 4 µg/mL
label 1

====

IC90 listing for selected molecules.
System: NB4 (acute promyelocytic leukemia, AML)
measurement.notes: Leukemia cell growth inhibition, MTT, 72 h (Example 5)
Assay type: cell-based, human
measurement.conditions: Homo sapiens; 72 h, MTT
Only the number, expressed in µg/mL, is required.

Fill in IC90 for record COCCCNCc1c2c3c(c(OC)c1OC)Oc1cc4c(cc1OC)CCN(C)[C@H]4Cc1ccc(cc1)Oc1cc(ccc1OC)C[C@@H]3N(C)CC2 [BS-TE-340]
2.87

Fill in IC90 for record COc1ccc2cc1Oc1ccc(cc1)C[C@H]1c3cc(c(OC)cc3CCN1C)Oc1c(OC)c(OC)c(CNC3CC3)c3c1[C@H](C2)N(C)CC3 [BS-TE-301]
2

Fill in IC90 for record COc1ccc2cc1Oc1ccc(cc1)C[C@H]1c3cc(c(OC)cc3CCN1C)Oc1c(OC)c(OC)c(CNCc3ccccn3)c3c1[C@H](C2)N(C)CC3 [BS-TE-352]
3.88

Fill in IC90 for record COc1ccc2cc1Oc1ccc(cc1)C[C@H]1c3cc(c(OC)cc3CCN1C)Oc1c(OC)c(OC)c(CNCc3cccs3)c3c1[C@H](C2)N(C)CC3 [BS-TE-359]
1

Fill in IC90 for record COc1ccc2cc1Oc1ccc(cc1)C[C@H]1c3cc(c(OC)cc3CCN1C)Oc1c(OC)c(OC)c(CNCc3cccnc3)c3c1[C@H](C2)N(C)CC3 [BS-TE-348]
4.78

Fill in IC90 for record COc1ccc2cc1Oc1ccc(cc1)C[C@H]1c3cc(c(OC)cc3CCN1C)Oc1c(OC)c(OC)c(COC(=O)c3ccco3)c3c1[C@H](C2)N(C)CC3 [BS-TE-216]
2

====

Test system: A549 (human lung cancer)
measurement.notes: Solid tumor cell growth inhibition, MTT, 72 h (Example 7)
Type: cell-based
measurement.conditions: Homo sapiens; 72 h, MTT, A549
Lab note - cut at 4 µg/mL for IC50: T if strictly below, F if not.

COc1ccc2cc1Oc1ccc(cc1)C[C@H]1c3cc(c(OC)cc3CCN1C)Oc1c(OC)c(OC)c(CNc3nccs3)c3c1[C@H](C2)N(C)CC3 | T
COc1ccc2cc1Oc1ccc(cc1)C[C@H]1c3cc(c(OC)cc3CCN1C)Oc1c(OC)c(OC)c(COC(=O)c3cccs3)c3c1[C@H](C2)N(C)CC3 | F
COc1ccc2cc1Oc1ccc(cc1)C[C@H]1c3cc(c(OC)cc3CCN1C)Oc1c(OC)c(OC)c(CN3CCC(C#N)CC3)c3c1[C@H](C2)N(C)CC3 | F
COc1ccc2cc1Oc1ccc(cc1)C[C@H]1c3cc(c(OC)cc3CCN1C)Oc1c(OC)c(OC)c(COC(C)=O)c3c1[C@H](C2)N(C)CC3 | F
COc1ccc2cc1Oc1ccc(cc1)C[C@H]1c3cc(c(OC)cc3CCN1C)Oc1c(OC)c(OC)c(CN3CCCC(O)C3)c3c1[C@H](C2)N(C)CC3 (stereo partly drawn) | F

Shifting focus to the compound that follows.
Find out if reported IC50 for COc1ccc2cc1Oc1ccc(cc1)C[C@H]1c3cc(c(OC)cc3CCN1C)Oc1c(OC)c(OC)c(COC(=O)c3ccco3)c3c1[C@H](C2)N(C)CC3 is less than 4 µg/mL
F
